Where do the numbers come from? From patent US12180193B2.

Entries and their Dmax
target under test: BRAF G466V (Homo sapiens, UniProt P15056, G466V)
Construct: expressed in transfected cells
Sequence (P15056 whole entry G466V): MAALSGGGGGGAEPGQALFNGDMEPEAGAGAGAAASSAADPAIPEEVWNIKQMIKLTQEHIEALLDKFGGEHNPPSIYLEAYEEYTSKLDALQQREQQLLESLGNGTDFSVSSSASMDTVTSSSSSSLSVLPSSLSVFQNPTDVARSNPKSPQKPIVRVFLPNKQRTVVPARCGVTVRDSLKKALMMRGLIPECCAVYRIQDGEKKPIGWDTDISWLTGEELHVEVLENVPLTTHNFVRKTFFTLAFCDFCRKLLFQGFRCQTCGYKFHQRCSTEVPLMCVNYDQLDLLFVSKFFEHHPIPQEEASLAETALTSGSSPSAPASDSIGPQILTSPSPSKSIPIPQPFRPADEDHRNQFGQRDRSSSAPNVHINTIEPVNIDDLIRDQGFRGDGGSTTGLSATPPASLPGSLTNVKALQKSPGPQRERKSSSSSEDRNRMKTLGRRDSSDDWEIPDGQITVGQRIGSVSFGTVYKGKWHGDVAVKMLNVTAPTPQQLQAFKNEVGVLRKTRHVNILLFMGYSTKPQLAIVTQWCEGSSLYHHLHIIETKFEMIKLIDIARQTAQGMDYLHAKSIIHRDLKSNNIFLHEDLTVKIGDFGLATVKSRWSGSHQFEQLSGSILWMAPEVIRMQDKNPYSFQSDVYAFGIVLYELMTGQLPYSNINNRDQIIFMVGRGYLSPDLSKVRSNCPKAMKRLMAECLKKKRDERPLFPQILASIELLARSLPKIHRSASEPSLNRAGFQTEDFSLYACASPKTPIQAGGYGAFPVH
assay: Cellular assay of target protein degradation, T-Rex 293 cells stably transfected with HA-BRAF G466V (HA immunofluorescence, high content imaging)
Format: cell-based
run conditions: maximum degradation observed, T-Rex 293 HA-BRAF G466V

QUERY: Which Dmax is listed for O=C1CCC(c2ccc(C3CCN(CCC4CCN(c5ccc(-c6cnc7[nH]cc(C(=O)c8c(F)ccc(NS(=O)(=O)N9CC[C@@H](F)C9)c8F)c7c6)cc5)CC4)CC3)cc2F)C(=O)N1 (stereo partly shown) [Compound 178] ?
RESULT: > 70%

QUERY: Which Dmax is listed for C[C@@H]1CN(c2ccc(-c3cnc4[nH]cc(C(=O)c5c(F)ccc(NS(=O)(=O)N6CC[C@@H](F)C6)c5F)c4c3)cc2)C[C@H](C)N1CC1CN(c2ccc3c(c2)CN(C2CCC(=O)NC2=O)C3=O)C1 (stereo partly shown) [Compound 53] ?
RESULT: > 70%

QUERY: Which Dmax is listed for O=C1CC[C@@H](N2Cc3cc(OCCCN4CC5(C4)CN(c4ccc(-c6cnc7[nH]cc(C(=O)c8c(F)ccc(NS(=O)(=O)N9CC[C@@H](F)C9)c8F)c7c6)cc4)C5)ccc3C2=O)C(=O)N1 [Compound 81] ?
RESULT: > 70%

Next, consider the following molecule.
QUERY: Which Dmax is listed for O=C1CC[C@@H](N2Cc3cc(N4C[C@H]5CN(CC6CCN(c7ccc(-c8cnc9[nH]cc(C(=O)c%10c(F)ccc(NS(=O)(=O)N%11CC[C@@H](F)C%11)c%10F)c9c8)cc7)CC6)C[C@H]5C4)ccc3C2=O)C(=O)N1 [Compound 58] ?
RESULT: 35 to 70%

---

target under test: BRAF V600E (Homo sapiens, UniProt P15056, V600E)
Construct: expressed in transfected cells
Sequence (P15056 whole entry V600E): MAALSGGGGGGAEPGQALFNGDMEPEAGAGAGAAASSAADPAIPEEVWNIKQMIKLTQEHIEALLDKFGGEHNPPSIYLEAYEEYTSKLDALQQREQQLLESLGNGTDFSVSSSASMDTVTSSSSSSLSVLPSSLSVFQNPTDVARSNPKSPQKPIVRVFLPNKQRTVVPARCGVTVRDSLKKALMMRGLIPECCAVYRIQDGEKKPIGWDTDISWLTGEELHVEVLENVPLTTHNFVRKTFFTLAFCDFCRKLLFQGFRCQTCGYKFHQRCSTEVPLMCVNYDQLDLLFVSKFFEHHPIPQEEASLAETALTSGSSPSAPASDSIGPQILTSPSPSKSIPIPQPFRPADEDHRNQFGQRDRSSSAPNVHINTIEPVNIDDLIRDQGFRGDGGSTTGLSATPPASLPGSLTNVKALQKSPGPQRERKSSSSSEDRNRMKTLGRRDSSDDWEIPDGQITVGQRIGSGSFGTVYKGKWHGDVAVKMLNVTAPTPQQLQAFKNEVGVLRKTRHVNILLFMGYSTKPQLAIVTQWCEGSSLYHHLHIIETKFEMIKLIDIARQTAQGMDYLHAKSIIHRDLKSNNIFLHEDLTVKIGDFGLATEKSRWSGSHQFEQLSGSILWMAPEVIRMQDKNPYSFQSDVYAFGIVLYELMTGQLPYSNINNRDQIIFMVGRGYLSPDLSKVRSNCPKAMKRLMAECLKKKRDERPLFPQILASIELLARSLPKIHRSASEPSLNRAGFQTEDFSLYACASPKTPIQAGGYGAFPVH
assay: Cellular assay of target protein degradation, T-Rex 293 cells stably transfected with HA-BRAF_V600E (HA immunofluorescence, high content imaging)
Type: cell-based
run conditions: maximum degradation observed, T-Rex 293 HA-BRAF V600E
measured property: Dmax

Here's what some known entries look like.
QUERY: Which Dmax is listed for O=C1CCC(N2Cc3cc(OC[C@@H](O)CN4CC5(C4)CN(c4ccc(-c6cnc7[nH]cc(C(=O)c8c(F)ccc(NS(=O)(=O)N9CC[C@@H](F)C9)c8F)c7c6)cc4)C5)ccc3C2=O)C(=O)N1 (stereo partly drawn) ?
RESULT: 35 to 70%

QUERY: Which Dmax is listed for O=C1CCC(N2Cc3cc(C4CCN(CC5CN(c6ccc(-c7cnc8[nH]cc(C(=O)c9c(F)ccc(NS(=O)(=O)N%10CC[C@@H](F)C%10)c9F)c8c7)cc6)C5)CC4)ccc3C2=O)C(=O)N1 (stereo partly drawn) ?
RESULT: < 35%

QUERY: Which Dmax is listed for O=C1CCC(N2Cc3cc([C@H](O)CN4CC5(C4)CN(c4ccc(-c6cnc7[nH]cc(C(=O)c8c(F)ccc(NS(=O)(=O)N9CC[C@@H](F)C9)c8F)c7c6)cc4)C5)ccc3C2=O)C(=O)N1 (stereo partly drawn) ?
RESULT: 35 to 70%

Next:
QUERY: Which Dmax is listed for O=C1CCC(N2Cc3cc(C4CCN(CCCc5ccc(-c6cnc7[nH]cc(C(=O)c8c(F)ccc(NS(=O)(=O)N9CC[C@@H](F)C9)c8F)c7c6)cc5)CC4)ccc3C2=O)C(=O)N1 (stereo partly drawn) ?
RESULT: 35 to 70%

---

target under test: BRAF V600E (Homo sapiens, UniProt P15056, V600E)
Construct: expressed in transfected cells
assay: Cellular assay of target protein degradation, T-Rex 293 cells stably transfected with HA-BRAF_V600E (HA immunofluorescence, high content imaging)
Assay type: cell-based
run conditions: maximum degradation observed, T-Rex 293 HA-BRAF V600E
measured property: Dmax

Here's what some known entries look like.
QUERY: Which Dmax is listed for `O=C1CC[C@H](N2Cc3cc(OCCCN4CC5(C4)CN(c4ccc(-c6cnc7[nH]cc(C(=O)c8c(F)ccc(NS(=O)(=O)N9CC[C@@H](F)C9)c8F)c7c6)cc4)C5)ccc3C2=O)C(=O)N1` ?
RESULT: 35 to 70%

QUERY: Which Dmax is listed for `O=C1CC[C@@H](N2Cc3cc(/C=C/CN4CC5(C4)CN(c4ccc(-c6cnc7[nH]cc(C(=O)c8c(F)ccc(NS(=O)(=O)N9CC[C@@H](F)C9)c8F)c7c6)cc4)C5)ccc3C2=O)C(=O)N1` ?
RESULT: 35 to 70%

Next, consider the following molecule.
QUERY: Which Dmax is listed for Cn1c(=O)n(C2CCC(=O)NC2=O)c2cccc(C3CCN(CC4CCN(c5ccc(-c6cnc7[nH]cc(C(=O)c8c(F)ccc(NS(=O)(=O)N9CC[C@@H](F)C9)c8F)c7c6)cc5)CC4)CC3)c21 (stereo partly drawn) ?
RESULT: 35 to 70%

---

target under test: BRAF G466V (Homo sapiens, UniProt P15056, G466V)
Construct: expressed in transfected cells
assay: Cellular assay of target protein degradation, T-Rex 293 cells stably transfected with HA-BRAF G466V (HA immunofluorescence, high content imaging)
Format: cell-based
run conditions: half maximal degradation, T-Rex 293 HA-BRAF G466V; read-out: BRaf G466V DC50
Entries and their DC50

QUERY: Which DC50 is listed for CNc1cc(-c2cnc3[nH]cc(C(=O)c4c(F)ccc(NS(=O)(=O)N5CC[C@@H](F)C5)c4F)c3c2)ccc1N1CCC(CN2CCC(c3ccc4c(c3)CN(C3CCC(=O)NC3=O)C4=O)CC2)CC1 (some centres unmarked) [Compound 257] ?
RESULT: 1 to 10 nM

QUERY: Which DC50 is listed for O=C1CCC(N2Cc3cc(C4CCN(CCC5CN(c6ccc(-c7cnc8[nH]cc(C(=O)c9c(F)ccc(NS(=O)(=O)N%10CC[C@@H](F)C%10)c9F)c8c7)cc6)C5)CC4)ccc3C2=O)C(=O)N1 (some centres unmarked) [Compound 218] ?
RESULT: > 30 nM

QUERY: Which DC50 is listed for O=C1CCC(N2Cc3cc(OCCCCN4CCN(c5ccc(-c6cnc7[nH]cc(C(=O)c8c(F)ccc(NS(=O)(=O)N9CC[C@@H](F)C9)c8F)c7c6)cn5)CC4)ccc3C2=O)C(=O)N1 (some centres unmarked) [Compound 120] ?
RESULT: 1 to 10 nM

QUERY: Which DC50 is listed for O=C1CCC(N2Cc3cc(N4CC5(CC(Oc6ccc(-c7cnc8[nH]cc(C(=O)c9c(F)ccc(NS(=O)(=O)N%10CC[C@@H](F)C%10)c9F)c8c7)cc6)C5)C4)ccc3C2=O)C(=O)N1 (some centres unmarked) [Compound 1] ?
RESULT: 1 to 10 nM

Next, consider the following molecule.
QUERY: Which DC50 is listed for O=C1CC[C@@H](N2Cc3cc(N4CCC(CN5CCN(c6ccc(-c7cnc8[nH]cc(C(=O)c9c(F)ccc(NS(=O)(=O)N%10CC[C@@H](F)C%10)c9F)c8c7)cc6)CC5)CC4)c(F)cc3C2=O)C(=O)N1 [Compound 41] ?
RESULT: 1 to 10 nM

---

Entries and their DC50
target under test: BRAF V600E (Homo sapiens, UniProt P15056, V600E)
Construct: expressed in transfected cells
assay: Cellular assay of target protein degradation, T-Rex 293 cells stably transfected with HA-BRAF_V600E (HA immunofluorescence, high content imaging)
Assay type: cell-based
run conditions: half maximal degradation, T-Rex 293 HA-BRAF V600E; read-out: BRaf V600E DC50

Here's what some known entries look like.
QUERY: Which DC50 is listed for O=C1CCC(N2Cc3cc(N4CCC(CN5CCC6(CCN(c7ccc(-c8cnc9[nH]cc(C(=O)c%10c(F)ccc(NS(=O)(=O)N%11CC[C@@H](F)C%11)c%10F)c9c8)cc7F)CC6)C5)CC4)ccc3C2=O)C(=O)N1 (stereo partly drawn) ?
RESULT: < 5 nM

QUERY: Which DC50 is listed for O=C1CCC(N2Cc3cc(N4CCC5(CCN(CCc6ccc(-c7cnc8[nH]cc(C(=O)c9c(F)ccc(NS(=O)(=O)N%10CC[C@@H](F)C%10)c9F)c8c7)cc6)CC5)C4)ccc3C2=O)C(=O)N1 (stereo partly drawn) ?
RESULT: 5 to 50 nM

QUERY: Which DC50 is listed for O=C1CCC(N2Cc3cc(OC[C@@H](O)CN4CC5(C4)CN(c4ccc(-c6cnc7[nH]cc(C(=O)c8c(F)ccc(NS(=O)(=O)N9CC[C@@H](F)C9)c8F)c7c6)cc4)C5)ccc3C2=O)C(=O)N1 (stereo partly drawn) ?
RESULT: 5 to 50 nM

QUERY: Which DC50 is listed for O=C1CCC(N2Cc3cc(C4CCN(CC5CCN(c6ccc(-c7cnc8[nH]cc(C(=O)c9c(F)ccc(NS(=O)(=O)N%10CCC(F)(F)C%10)c9F)c8c7)cc6)CC5)CC4)ccc3C2=O)C(=O)N1 (stereo not drawn) ?
RESULT: < 5 nM

QUERY: Which DC50 is listed for O=C1CCC(N2Cc3cc(C4CCN(CCCc5ccc(-c6cnc7[nH]cc(C(=O)c8c(F)ccc(NS(=O)(=O)N9CC[C@@H](F)C9)c8F)c7c6)cc5)CC4)ccc3C2=O)C(=O)N1 (stereo partly drawn) ?
RESULT: 5 to 50 nM

QUERY: Which DC50 is listed for O=C1CCC(NC(=O)c2ccc(N3CCN(CCN4CCN(c5ccc(-c6cnc7[nH]cc(C(=O)c8c(F)ccc(NS(=O)(=O)N9CC[C@@H](F)C9)c8F)c7c6)cc5)CC4)CC3)cc2F)C(=O)N1 (stereo partly drawn) ?
RESULT: 5 to 50 nM

QUERY: Which DC50 is listed for O=C1CCC(N2Cc3cc(CCCN4CC5(C4)CN(c4ccc(-c6cnc7[nH]cc(C(=O)c8c(F)ccc(NS(=O)(=O)N9CC[C@@H](F)C9)c8F)c7c6)cc4F)C5)ccc3C2=O)C(=O)N1 (stereo partly drawn) ?
RESULT: 5 to 50 nM

QUERY: Which DC50 is listed for CN1C(=O)CCC(N2Cc3cc(C4CCN(CC5CCN(c6ccc(-c7cnc8[nH]cc(C(=O)c9c(F)ccc(NS(=O)(=O)N%10CC[C@@H](F)C%10)c9F)c8c7)cc6)CC5)CC4)ccc3C2=O)C1=O (stereo partly drawn) ?
RESULT: > 500 nM

Next, consider the following molecule.
QUERY: Which DC50 is listed for O=C1CCC(NC(=O)c2ccc(C3CCN(CC4CCN(c5ncc(-c6cnc7[nH]cc(C(=O)c8c(F)ccc(NS(=O)(=O)N9CC[C@@H](F)C9)c8F)c7c6)cn5)CC4)CC3)cc2F)C(=O)N1 (stereo partly drawn) ?
RESULT: 50 to 500 nM
